Ref: patent US20250250357A1

- target under test: T1, human MSLN-R3 on HEK293T-hMSLN-R3 recombinant cells (human, UniProt Q13421 487-606)
- T1 construct: the C-terminal limit is uncertain; also called human MSLN-R3 membrane protein
- T1 sequence (Q13421 495-614): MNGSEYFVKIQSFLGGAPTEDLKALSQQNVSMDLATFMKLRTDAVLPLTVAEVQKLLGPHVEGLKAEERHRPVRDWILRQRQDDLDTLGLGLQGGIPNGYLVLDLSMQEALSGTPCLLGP
- protocol description: FACS, HEK293T-hMSLN-R3 cells
metric name: Maximum_MFI (MFI)
Respond numerically; units are MFI and should not be typed.

Sample records with Maximum_MFI:
(Q) Give the measured Maximum_MFI of F2.23.12-H8 (scFv, not shown: small tags and cut ends, also called S009-F2.23.12 humanized antibody VH2 + VL4) scFv: EVQLVQSGAEVKKPGASVKVSCKASGYTFTNYWMHWVRQAPGQGLEWMGNINPSNGGPYYNERFRSRVTMTVDKSTSTAYMELSSLRSEDTAVYYCARPYYGSSYGYFDYWGQGTTVTVSSGGGGSGGGGSGGGGSDIQMTQSPSSLSASVGDRVTITCKASQDINKYIAWYQHKPGKAPKLLIHYTSELQPGVPSRFSGSGSGRDYTFTISSLQPEDIATYYCLQYANPLRTFGGGTKVEIK .
(A) 4590

(Q) Fill blank: measured Maximum_MFI of the binder F2.39.3-H8 (scFv, not shown: small tags and cut ends, also called S009-F2.39.3 humanized antibody VH2 + VL4) scFv: EVQLVQSGAEVKKPGASVKVSCKASGYTFTNYWMHWVRQAPGQGLEWMGNINPSSGDSYYNERFMSRVTMTVDKSTSTAYMELSSLRSEDTAVYYCARSGGLWLAFWGQGTLVTVSSGGGGSGGGGSGGGGSDIVMTQTPLSLSVTPGQPASISCKSSQTLLNSVSQNNYLAWYQQKPGQSPTLLVYFASTRESGVPDRFSGSGSGTDFTLKISRVEAEDVGVYYCQQHYRTPYTFGGGTKVEIK is ____.
(A) 5600

In the following, a different binder is considered.
(Q) Given the entry F2.23.12-H13 (scFv, not shown: small tags and cut ends, also called S009-F2.23.12 humanized antibody VH4 + VL1) scFv: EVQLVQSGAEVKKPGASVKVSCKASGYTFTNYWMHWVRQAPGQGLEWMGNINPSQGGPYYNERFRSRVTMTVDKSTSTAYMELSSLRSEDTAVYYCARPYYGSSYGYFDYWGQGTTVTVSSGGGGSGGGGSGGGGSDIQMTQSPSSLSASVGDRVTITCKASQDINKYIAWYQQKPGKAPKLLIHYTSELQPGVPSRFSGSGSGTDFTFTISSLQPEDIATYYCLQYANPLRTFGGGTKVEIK , report its measured Maximum_MFI.
(A) 4710
